Numbers sourced from PubChem BioAssay AID623962.

- System: Huh-7.5 HCV Rluc replicon, luciferase luminescence, 72 h
- Measurement Notes: inhibition of HCV replicon replication, late-stage follow-up, orthogonal assay for HCV NS3 helicase inhibitor project, cell-based, luminescence, Renilla luciferase replicon (AID 623962)
- Test Conditions: at 10 µM
Activity calls are given as the source filed them.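 Rule for the calls: active = mean inhibition at 10 µM of 50% or more; inactive = mean inhibition at 10 µM below 50%.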
Allowed answers: active, inactive

Worked set:
Smiles String | Assigned Class
Cc1ccc2nc(-c3ccc4nc(-c5ccc(NC(=O)Nc6ccccc6)cc5)sc4c3)sc2c1S(=O)(=O)O | inactive
Cc1ccc2nc(-c3ccc4nc(-c5ccc(NC(=O)c6cccc(C(F)(F)F)c6)cc5)sc4c3)sc2c1S(=O)(=O)O | inactive
Cc1ccc(NC(=O)Nc2ccc(-c3nc4ccc(-c5nc6ccc(C)c(S(=O)(=O)O)c6s5)cc4s3)cc2)cc1 | inactive
CCN(CC)c1ccc(-c2nc3ccc(C)c(S(=O)(=O)O)c3s2)cc1 | inactive
CCN(CC)c1ccc(-c2nc3ccc(-c4nc5ccc(C)c(S(=O)(=O)O)c5s4)cc3s2)cc1 | inactive
COc1ccc(S(=O)(=O)Nc2ccc(-c3nc4ccc(-c5nc6ccc(C)c(S(=O)(=O)O)c6s5)cc4s3)cc2)cc1 | inactive

Would you mind telling me which call this test gave "Cc1ccc2nc(-c3ccc4nc(-c5ccc(N(C)C(=O)c6ccc7ccccc7c6)cc5)sc4c3)sc2c1S(=O)(=O)O" ? inactive

# fetch the recorded call for "O=C(Nc1ccc(-c2nc3ccccc3[nH]2)cc1)c1ccc2ncsc2c1" here inactive

# fetch the recorded call for "Cc1ccc2nc(-c3ccc4nc(-c5ccc(NC(=O)c6cc(C(F)(F)F)cc(C(F)(F)F)c6)cc5)sc4c3)sc2c1S(=O)(=O)O" here active

Please state the recorded outcome for this compound: "Cc1ccc2nc(-c3ccc4nc(-c5ccc(NC(=O)c6ccc(C(F)(F)F)cc6)cc5)sc4c3)sc2c1S(=O)(=O)O" inactive
